meta.source: patent US8604206B2

Reported IC50 values for a set of compounds
molecular target: recombinant human GCase (rhGCase; Cerezyme®) (Homo sapiens (Human), UniProt P04062, R534H); assay: In vitro enzyme inhibition assay (4-MU-β-D-Glc substrate), inhibition constants; assay type: biochemical; settings: pH 7.0; read-out: IC50 (μM) pH 7.0
Sequence (P04062 40-536 R534H limits assumed): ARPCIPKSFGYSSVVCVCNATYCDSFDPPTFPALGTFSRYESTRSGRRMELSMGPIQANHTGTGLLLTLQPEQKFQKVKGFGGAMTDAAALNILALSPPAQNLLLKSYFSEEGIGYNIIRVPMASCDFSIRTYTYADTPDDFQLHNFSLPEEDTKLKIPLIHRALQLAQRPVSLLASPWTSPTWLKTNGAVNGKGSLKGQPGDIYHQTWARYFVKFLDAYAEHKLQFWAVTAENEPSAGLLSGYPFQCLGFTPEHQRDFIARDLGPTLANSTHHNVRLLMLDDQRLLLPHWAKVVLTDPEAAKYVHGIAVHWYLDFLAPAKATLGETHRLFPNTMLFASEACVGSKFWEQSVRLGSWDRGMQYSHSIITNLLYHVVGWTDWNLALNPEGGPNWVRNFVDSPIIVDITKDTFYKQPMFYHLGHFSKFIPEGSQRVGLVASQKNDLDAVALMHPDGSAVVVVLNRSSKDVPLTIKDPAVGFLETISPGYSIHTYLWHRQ

| Compound | IC50 / µM |
| --- | --- |
| O[C@@H]1[C@@H]([C@H](O)c2ccccc2)CNC[C@H]1O | 0.017 |
| C[C@H](O)[C@H]1CNC[C@@H](O)[C@@H]1O (single isomer, unassigned) | 0.066 |
| O[C@@H]1[C@@H](Cc2ccccc2)CNC[C@H]1O | 0.127 |
| C[C@@H](F)[C@@H]1CNC[C@@H](O)[C@@H]1O.Cl [Cmpd 14, Hydrochloride] | 0.007 |
